Where do these numbers come from? They come from patent US6806276B2.

Assay system: human peripheral type cannabinoid receptor (hCB2) (Homo sapiens)
Construct: expressed in transfected cells; host or cells: CHO cells
Experimental details: Binding assay (in vitro), [3H]Win55212-2 displacement, membrane fractions of human CB2-CHO
Run conditions: indicator of selectivity for peripheral type receptors
Readout kind: C/S (Ki central type receptors / Ki peripheral type receptors)

Here is how some compounds turned out for C/S (Ki central type receptors / Ki peripheral type receptors).
{"columns": ["Line notation", "Readout value"],
 "data": [
  ["CCOc1c(OC)ccc2cc(C(=O)NCCc3ccc(F)cc3)c(=O)[nH]c12", 247],
  ["CCCCCOc1c(OC)ccc2cc(C(=O)NCCc3ccc(O)c(OC)c3)c(=O)[nH]c12", 167],
  ["COc1ccc2cc(C(=O)NCCc3ccc(F)cc3)c(=O)[nH]c2c1OC", 995]
]}

Attention now turns to another entry.
C/S (Ki central type receptors / Ki peripheral type receptors) reading for CCCCCOc1c(OC)ccc2cc(C(=O)NCCc3ccccc3)c(=O)[nH]c12 : 194

----------
Assay system: human peripheral type cannabinoid receptor (hCB2) (Homo sapiens)
Construct: expressed in transfected cells; host or cells: CHO cells
Experimental details: Binding assay (in vitro), [3H]Win55212-2 displacement, membrane fractions of human CB2-CHO
Run conditions: Ki value Peripheral type receptor (S), hCB2 expressed in CHO cells, [3H]Win55212-2 2 nM, 30° C. 90 minutes
Readout kind: pKi
Note: pKi values are expressed as the negative base-10 logarithm of concentration in M.

{"columns": ["Line notation", "Assay system", "pKi"],
 "data": [
  ["CCCCCOc1cc2cc(C(=O)NCCc3ccc(F)cc3)c(=O)[nH]c2cc1OC", "human peripheral type cannabinoid receptor (hCB2) (Homo sapiens)", 10.44],
  ["CCCCCOc1cc2cc(C(=O)O)c(=O)[nH]c2cc1OC", "human peripheral type cannabinoid receptor (hCB2) (Homo sapiens)", 9.70],
  ["CCCCCOc1ccc2cc(C(=O)NCCc3ccc(F)cc3)c(=O)[nH]c2c1OCCCCC", "human peripheral type cannabinoid receptor (hCB2) (Homo sapiens)", 10.59]
]}

Moving on to another compound below.
Form: compound = CCOc1c(OC)ccc2cc(C(=O)NCc3ccc4c(c3)OCO4)c(=O)[nH]c12 ; pKi = 10.28

----------
Assay system: human peripheral type cannabinoid receptor (hCB2) (Homo sapiens)
Construct: expressed in transfected cells; host or cells: CHO cells
Experimental details: Binding assay (in vitro), [3H]Win55212-2 displacement, membrane fractions of human CB2-CHO
Run conditions: indicator of selectivity for peripheral type receptors
Readout kind: C/S (Ki central type receptors / Ki peripheral type receptors)
A bare number is all that is needed in reply.

{"columns": ["Molecule", "Readout value"],
 "data": [
  ["CCCCCOc1ccc2cc(C(=O)NCCc3ccc(F)cc3)c(=O)[nH]c2c1OCCCCC [Example 3-46]", 8776],
  ["CCCCCOc1cc2cc(C(=O)OC)c(=O)[nH]c2cc1OC [Example 1-2]", 262202],
  ["CCCCCOc1cc2cc(C(=O)NCCc3ccc(F)cc3)c(=O)n(C)c2cc1OC [Example 3-43]", 20093]
]}

Now examine the next entry.
molecule CCCCCOc1c(OC)ccc2cc(C(=O)NCCc3ccc(F)cc3)c(=O)n(C)c12 [Example 3-36] , C/S (Ki central type receptors / Ki peripheral type receptors) observed: 8695

----------
Measured pKi, listed per entry for reference.
Assay system: human central type cannabinoid receptor (hCB1) (Homo sapiens, UniProt P21554)
Construct: expressed in transfected cells; host or cells: CHO cells
Sequence (P21554 whole entry): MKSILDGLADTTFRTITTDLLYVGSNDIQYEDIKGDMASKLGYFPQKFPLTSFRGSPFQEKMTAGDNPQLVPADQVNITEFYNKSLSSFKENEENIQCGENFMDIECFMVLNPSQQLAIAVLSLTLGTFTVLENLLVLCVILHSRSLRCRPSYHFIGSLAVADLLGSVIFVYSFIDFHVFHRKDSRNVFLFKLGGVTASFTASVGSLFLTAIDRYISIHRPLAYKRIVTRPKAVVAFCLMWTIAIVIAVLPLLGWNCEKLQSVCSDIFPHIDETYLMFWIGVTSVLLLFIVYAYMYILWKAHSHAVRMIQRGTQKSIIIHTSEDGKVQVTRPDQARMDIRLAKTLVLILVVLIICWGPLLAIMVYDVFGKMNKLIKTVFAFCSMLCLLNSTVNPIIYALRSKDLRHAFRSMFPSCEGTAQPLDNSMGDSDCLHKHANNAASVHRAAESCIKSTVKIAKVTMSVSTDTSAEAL
Experimental details: Binding assay (in vitro), [3H]Win55212-2 displacement, membrane fractions of human CB1-CHO
Run conditions: hCB1 expressed in CHO cells, [3H]Win55212-2 2 nM, 30° C. 90 minutes; read-out: Ki value Central type receptor (C)
Entry type: numeric. Quantity: pKi, the -log10 of concentration in molar units.

{"columns": ["Line notation", "pKi"],
 "data": [
  ["CCCCCOc1c(OC)ccc2cc(C(=O)NCc3ccc4c(c3)OCO4)c(=O)n(C)c12", 6.50]
]}

// CCCCOc1c(OC)ccc2cc(C(=O)NCCc3ccc(F)cc3)c(=O)[nH]c12 : pKi value = 6.60

Field pKi (entry CCCCOc1c(OC)ccc2cc(C(=O)O)c(=O)[nH]c12 ) reads 5.49

Lab book: pKi of CCCCCOc1c(OC)ccc2cc(C(=O)NCCc3ccc(F)cc3)c(=O)n(C)c12 noted as 6.74

----------
Assay system: human peripheral type cannabinoid receptor (hCB2) (Homo sapiens)
Construct: expressed in transfected cells; host or cells: CHO cells
Experimental details: Binding assay (in vitro), [3H]Win55212-2 displacement, membrane fractions of human CB2-CHO
Run conditions: Ki value Peripheral type receptor (S), hCB2 expressed in CHO cells, [3H]Win55212-2 2 nM, 30° C. 90 minutes
Readout kind: pKi
Answer as the number alone; pKi is minus log10 of concentration in mol/L.

Check out these entries, answers already filled in.
{"columns": ["Line notation", "pKi"],
 "data": [
  ["CCCCCOc1cc2cc(C(=O)NCc3ccc4c(c3)OCO4)c(=O)[nH]c2cc1OC", 8.97],
  ["CCCCCOc1c(OC)ccc2cc(C(=O)NCc3ccc(F)cc3)c(=O)[nH]c12", 8.89],
  ["CCCCCOc1c(OC)ccc2cc(C(=O)NCCN3CCOCC3)c(=O)n(C)c12", 10.07]
]}

The compound identified as CCCCCOc1cc2cc(C(=O)OC)c(=O)[nH]c2cc1OC registered its pKi at 10.85

----------
Assay system: human peripheral type cannabinoid receptor (hCB2) (Homo sapiens, UniProt P34972)
Construct: expressed in transfected cells; host or cells: CHO cells
Sequence (P34972 whole entry): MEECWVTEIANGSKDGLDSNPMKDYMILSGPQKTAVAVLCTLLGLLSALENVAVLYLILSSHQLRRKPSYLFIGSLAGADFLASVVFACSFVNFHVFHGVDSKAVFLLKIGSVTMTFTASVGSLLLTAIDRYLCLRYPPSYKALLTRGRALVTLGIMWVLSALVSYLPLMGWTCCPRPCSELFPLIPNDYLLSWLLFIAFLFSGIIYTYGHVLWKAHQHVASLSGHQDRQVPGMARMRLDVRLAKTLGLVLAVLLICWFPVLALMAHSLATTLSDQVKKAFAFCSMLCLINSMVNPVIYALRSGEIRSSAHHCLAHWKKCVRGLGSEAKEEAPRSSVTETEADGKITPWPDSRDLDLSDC
Experimental details: Binding assay (in vitro), [3H]Win55212-2 displacement, membrane fractions of human CB2-CHO
Run conditions: hCB2 expressed in CHO cells, [3H]Win55212-2 2 nM, 30° C. 90 minutes; read-out: Ki value Peripheral type receptor (S)
Okay, here is how we bin by Ki: bottom (below 60 pM), middle (60 pM to below 200 pM), top (200 pM or more)

See these solved cases before continuing.
{"columns": ["Compound", "Assay system", "Group label"],
 "data": [
  ["CCCCCOc1c(OC)ccc2cc(C(=O)O)c(=O)[nH]c12 [Example 2-1]", "human peripheral type cannabinoid receptor (hCB2) (Homo sapiens, UniProt P34972)", "top"],
  ["CCOc1c(OC)ccc2cc(CN(C)C)c(=O)[nH]c12 [Example 7-1]", "human peripheral type cannabinoid receptor (hCB2) (Homo sapiens, UniProt P34972)", "middle"],
  ["CCCCOc1c(OC)ccc2cc(COC(=O)Nc3ccc(F)cc3)c(=O)[nH]c12 [Example 6-1]", "human peripheral type cannabinoid receptor (hCB2) (Homo sapiens, UniProt P34972)", "bottom"],
  ["CCOc1c(OC)ccc2cc(COC(=O)Nc3ccncc3)c(=O)[nH]c12 [Example 6-2]", "human peripheral type cannabinoid receptor (hCB2) (Homo sapiens, UniProt P34972)", "bottom"],
  ["CCCOc1c(OC)ccc2cc(C(=O)NCCc3ccncc3)c(=O)[nH]c12 [Example 3-26]", "human peripheral type cannabinoid receptor (hCB2) (Homo sapiens, UniProt P34972)", "top"]
]}

In: Which band does CCCCOc1c(OC)ccc2cc(C(=O)O)c(=O)[nH]c12 [Example 2-2] fall in?
Out: top

In: Class (by measured Ki) for CCCOc1c(OC)ccc2cc(C(=O)O)c(=O)[nH]c12 [Example 2-4]
Out: bottom

In: # bin label for COc1ccc2cc(C(=O)NCCc3ccc(F)cc3)c(=O)[nH]c2c1OC [Example 3-31]
Out: middle

In: Sort into band: CCCCOc1c(OC)ccc2cc(CNC(=O)Nc3ccc(F)cc3)c(=O)[nH]c12 [Example 8-1]
Out: top

In: Bin this entry: CCOc1c(OC)ccc2cc(CO)c(=O)[nH]c12 [Example 5-2]
Out: bottom

In: Which of the defined bands does the recorded Ki of CCOc1c(OC)ccc2cc(CN3CCOCC3)c(=O)[nH]c12 [Example 7-3] sit within?
Out: middle

In: The entry to classify is CCCCOc1c(OC)ccc2cc(CO)c(=O)[nH]c12 [Example 5-1] ; which class holds it?
Out: top

In: # bin lookup: classify CCCOc1c(OC)ccc2cc(C(=O)NCCc3ccc(F)cc3)c(=O)[nH]c12 [Example 3-27] by its Ki
Out: bottom

----------
# C/S (Ki central type receptors / Ki peripheral type receptors) per entry
Assay system: human peripheral type cannabinoid receptor (hCB2) (Homo sapiens, UniProt P34972)
Construct: expressed in transfected cells; host or cells: CHO cells
Experimental details: Binding assay (in vitro), [3H]Win55212-2 displacement, membrane fractions of human CB2-CHO
Run conditions: indicator of selectivity for peripheral type receptors
Could you respond with only the numeric value?

In the examples that follow, each entry is paired with its recorded C/S (Ki central type receptors / Ki peripheral type receptors).
{"columns": ["Line notation", "Readout value"],
 "data": [
  ["CCCCCOc1cc2cc(C(=O)NCCc3ccc(F)cc3)c(=O)[nH]c2cc1OC", 66604],
  ["CCCCOc1c(OC)ccc2cc(COC(=O)Nc3ccc(F)cc3)c(=O)[nH]c12", 15612],
  ["CCCCOc1c(OC)ccc2cc(C(=O)NCCc3ccncc3)c(=O)[nH]c12", 20805],
  ["CCCCCOc1c(OC)ccc2cc(C(=O)NCCN3CCOCC3)c(=O)n(C)c12", 11002],
  ["CCCCOc1c(OC)ccc2cc(C(=O)O)c(=O)[nH]c12", 42172],
  ["CCCCCOc1c(OC)ccc2cc(C(=O)NCCc3ccc(O)cc3)c(=O)n(C)c12", 176]
]}

Notebook: CCCCCOc1cc2cc(C(=O)NCc3ccc4c(c3)OCO4)c(=O)n(C)c2cc1OC , C/S (Ki central type receptors / Ki peripheral type receptors) read as 11902

CCCCCOc1c(OC)ccc2cc(C(=O)NCCc3ccncc3)c(=O)n(C)c12 yielded C/S (Ki central type receptors / Ki peripheral type receptors) of 104
